For each record, write down the corresponding melting point.

Known results for compounds:
{"columns": ["Compound", "Meas value"],
 "data": [
  ["CCCCS(=O)(=O)NC(=O)c1ccc2nnn(Cc3ccc(Cl)cc3Cl)c2c1 [Example 40]", "158 to 160 °C"],
  ["Cc1cc(C(=O)NS(=O)(=O)c2ccc(Cl)s2)nc2c1nc(C)n2Cc1ccc2ccccc2c1Br [Example 104-6]", "213 to 214 °C"]
]}

Turning now to a further compound:
Record summary for Cc1nc2ccc(C(=O)NS(=O)(=O)/C=C/c3ccccc3)nc2n1Cc1ccc(Cl)cc1Cl [Example 65-3] : reported melting point = 192 to 194 °C

---

Metric: melting point

Known results for compounds:
{"columns": ["Smiles input", "melting point"],
 "data": [
  ["Cc1nc2ccc(C(=O)NS(=O)(=O)c3ccccc3)nc2n1Cc1ccc(OCc2ccccc2)cc1Cl", "190 to 191 °C"],
  ["Cc1nc2ccc(C(=O)NS(=O)(=O)c3ccccc3)nc2n1Cc1ccc(CC(C)C)cc1Cl", "183 to 184 °C"],
  ["CCCCCS(=O)(=O)NC(=O)c1ccc2nc(C)n(Cc3ccc(Cl)cc3Br)c2n1", "167 to 168 °C"],
  ["Cc1nc2ccc(C(=O)NS(=O)(=O)c3ccccc3)nc2n1Cc1ccc(C=O)cc1Cl", "253 to 255 °C"],
  ["Cc1nc2ccc(C(=O)NS(=O)(=O)c3ccc(Cl)s3)nc2n1Cc1ccc(C(F)(F)F)cc1Cl", "170 to 171 °C"]
]}

Turning now to a further compound:
Record summary for `CCCCS(=O)(=O)NC(=O)c1ccc2c(=O)n(C)c(Cc3ccc(Cl)cc3Cl)nc2c1` : reported melting point = 244 to 246 °C

---

For each record, write down the corresponding melting point.

Known results for compounds:
{"columns": ["Smiles input", "melting point"],
 "data": [
  ["CCCCCS(=O)(=O)NC(=O)c1ccc2nc(C)n(Cc3ccc(SC)cc3Cl)c2n1", "184 to 185 °C"],
  ["CSc1ccc(Cn2c(C)nc3ccc(C(=O)NS(=O)(=O)/C=C/c4ccccc4)nc32)c(Cl)c1", "175 to 176 °C"]
]}

Respectfully, I request melting point for each entry included below.
1. Cc1nc2ccc(C(=O)NS(=O)(=O)c3ccccc3)nc2n1Cc1ccc(OCCN(C)c2ccccn2)cc1Cl
2. Cc1cc(C(=O)NS(=O)(=O)c2ccccc2)nc2c1nc(C)n2Cc1ccc(Br)cc1Cl

A)
1: 104 to 105 °C; 2: 231 to 232 °C

---

Metric: melting point

{"columns": ["Smiles input", "melting point"],
 "data": [
  ["Cc1nc2ccc(C(=O)NS(=O)(=O)c3ccccc3)nc2n1Cc1ccc(-c2ccccc2)cc1Cl", "204 to 214 °C"],
  ["CCCCCS(=O)(=O)NC(=O)c1ccc2nc(C)n(Cc3ccc(CC)cc3Cl)c2n1", "138 to 139 °C"],
  ["CCCCCS(=O)(=O)NC(=O)c1ccc2sc(C)c(Cc3cccc(Cl)c3Cl)c2c1", "196 to 197 °C"],
  ["CCCCCS(=O)(=O)NC(=O)c1ccc2sc(C)c(Cc3cc(Cl)ccc3Cl)c2c1", "147 to 148 °C"],
  ["Cc1nc2ccc(C(=O)NS(=O)(=O)c3ccccc3)nc2n1Cc1ccc(COc2ccccc2)cc1Cl", "203 to 205 °C"],
  ["CCCCCS(=O)(=O)NC(=O)c1ccc2sc(C)c(Cc3ccc(Cl)cc3Cl)c2c1", "158.5 to 159.3 °C"],
  ["Cc1oc2ccc(C(=O)NS(=O)(=O)c3ccccc3)cc2c1Cc1ccc(Cl)cc1Cl", "208.5 to 209.5 °C"],
  ["Cc1nc2ccc(C(=O)NS(=O)(=O)c3ccccc3)nc2n1Cc1ccc(OC(C)C)cc1Cl", "177 to 179 °C"]
]}

Respectfully, I request melting point for each entry included below.
1. CCCCCS(=O)(=O)NC(=O)c1ccc2nc(C)n(Cc3ccc4ccccc4c3Br)c2n1
2. CCCCS(=O)(=O)NC(=O)c1ccc2nc(C)n(Cc3ccc(Cl)cc3Cl)c2n1
3. CCCCCS(=O)(=O)NC(=O)c1ccc2nc(C)n(Cc3ccc(-c4ccccc4)cc3Cl)c2n1
4. Cc1nc2ccc(C(=O)NS(=O)(=O)c3ccccc3)nc2n1Cc1ccc(CC2CCCCC2)cc1Cl
5. Cc1nc2ccc(C(=O)NS(=O)(=O)/C=C/c3ccccc3)nc2n1Cc1ccc(C(F)(F)F)cc1Cl
6. Cc1nc2ccc(C(=O)NS(=O)(=O)/C=C/c3ccccc3)nc2n1Cc1ccc(Br)cc1Cl
7. CCCCCS(=O)(=O)NC(=O)c1cc(C)c2nc(C)n(Cc3ccc4ccccc4c3Br)c2n1

A)
1. 200 to 201 °C
2. 153 to 154 °C
3. 155 to 156 °C
4. 170 to 171 °C
5. 140 to 142 °C
6. 204 to 205 °C
7. 210 to 211 °C

Respectfully, I request melting point for each entry included below.
1. Cc1ccc(Cn2c(C)nc3ccc(C(=O)NS(=O)(=O)c4ccccc4)nc32)c(Cl)c1
2. CCc1ccc(Cn2c(C)nc3ccc(C(=O)NS(=O)(=O)c4ccccc4)nc32)c(Cl)c1
3. Cc1nc2ccc(C(=O)NS(=O)(=O)c3ccc(Cl)s3)nc2n1Cc1ccc(Cl)cc1Cl
4. CCOC(=O)c1ccc(Cn2c(C)nc3ccc(C(=O)NS(=O)(=O)c4ccccc4)nc32)c(Cl)c1
5. CSc1ccc(Cn2c(C)nc3ccc(C(=O)NS(=O)(=O)c4ccc(Cl)s4)nc32)c(Cl)c1
6. CCCCCS(=O)(=O)NC(=O)c1ccc2[nH]c(C)c(Cc3ccc(Cl)cc3Cl)c2n1
7. Cc1nc2ccc(C(=O)NS(=O)(=O)c3ccccc3)nc2n1Cc1ccc(/C=C/c2ccccc2)cc1Cl

A)
213 to 215 °C
167 to 168 °C
206 to 207 °C
196 to 197 °C
170 to 171 °C
147 to 148 °C
262 to 263 °C

Record summary for `Cc1nc2ccc(C(=O)NS(=O)(=O)c3ccc(Br)s3)nc2n1Cc1ccc(C(F)(F)F)cc1Cl` : reported melting point = 172 to 173 °C
